Target: human growth hormone secretagogue receptor-1a (hGHS-R1a) (Homo sapiens, UniProt Q92847)
Construct: The full length hGHS-R1a was subcloned into the mammalian expression vector pcDNA 3.1
Sequence (Q92847 whole entry): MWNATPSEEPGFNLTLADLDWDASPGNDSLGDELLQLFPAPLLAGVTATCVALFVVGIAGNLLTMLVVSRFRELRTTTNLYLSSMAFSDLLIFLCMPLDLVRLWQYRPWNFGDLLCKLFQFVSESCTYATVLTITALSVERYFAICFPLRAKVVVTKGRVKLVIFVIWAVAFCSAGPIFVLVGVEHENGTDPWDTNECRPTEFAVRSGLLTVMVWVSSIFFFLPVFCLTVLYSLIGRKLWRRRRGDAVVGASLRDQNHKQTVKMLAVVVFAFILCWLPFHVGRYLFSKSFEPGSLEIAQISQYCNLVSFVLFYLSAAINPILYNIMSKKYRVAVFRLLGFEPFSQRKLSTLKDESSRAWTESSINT
Experiment: hGHS-R1a binding assay, (125I)ghrelin displacement on CHO-K1 cell membranes
Details: membranes of CHO-K1 cells expressing hGHS-R1a; 0.05 nM (125I)ghrelin; sixty minute incubation at 4° C.
measurement_type: pKi
pKi is a log-scale quantity: -log10 of the concentration expressed in molar.

Request: // pKi lookup, key: O=CN[C@@H](Cc1c[nH]c2ccccc12)NC(=O)[C@@H](Cc1csc2ccccc12)NC(=O)C1CCNCC1
Response: 6.92

Request: // pKi lookup, key: CC(C)(N)C(=O)N[C@H](Cc1cccc2ccccc12)C(=O)N[C@H](Cc1csc2ccccc12)NC=O
Response: 7.00

Request: // pKi lookup, key: CC(C)(N)C(=O)N[C@H](Cc1csc2ccccc12)C(=O)N[C@H](Cc1c[nH]c2ccccc12)NC=O
Response: 7.82

====

Molecular target: human growth hormone secretagogue receptor-1a (hGHS-R1a) (Homo sapiens, UniProt Q92847)
Construct: The full length hGHS-R1a was subcloned into the mammalian expression vector pcDNA 3.1
Test: hGHS-R1a binding assay, (125I)ghrelin displacement on CHO-K1 cell membranes
Settings: membranes of CHO-K1 cells expressing hGHS-R1a; 0.05 nM (125I)ghrelin; sixty minute incubation at 4° C.
measurement_type: log10 of Ki (log10 of the value in nM)
Parameter value (number): base-10 log of Ki in nM.

Some solved cases for reference:
INSERT INTO assay_data (smiles_input, recorded_number) VALUES
  ('CC(=O)N[C@H](Cc1c[nH]c2ccccc12)NC(=O)[C@@H](Cc1csc2ccccc12)NC(=O)C(C)(C)N', 0.41),
  ('CC(C)(N)C(=O)N[C@H](Cc1csc2ccccc12)C(=O)N[C@@H](Cc1c[nH]c2ccccc12)OC(=O)C(F)(F)F', 1.97),
  ('CC(C)(N)C(=O)N[C@H](Cc1csc2ccccc12)C(=O)N[C@H](Cc1cccc2ccccc12)NC=O', 2.37),
  ('CC(C)(N)C(=O)N[C@H](Cc1c[nH]c2ccccc12)C(=O)N[C@H](Cc1csc2ccccc12)NC=O', 2.45),
  ('CC(C)(N)C(=O)N[C@H](Cc1csc2ccccc12)C(=O)N[C@H](Cc1csc2ccccc12)NC=O', 1.96);

Request: // log10 of Ki lookup, key: CC(C)C(=O)N[C@@H](Cc1c[nH]c2ccccc12)NC(=O)[C@@H](Cc1csc2ccccc12)NC(=O)C(C)(C)N
Response: 1.31

Request: // log10 of Ki lookup, key: CC(C)(N)C(=O)N[C@H](Cc1ccc2ccccc2c1)C(=O)N[C@H](Cc1csc2ccccc12)NC=O
Response: 2.35

Request: // log10 of Ki lookup, key: CC(=O)N[C@@H](Cc1c[nH]c2ccccc12)NC(=O)[C@@H](Cc1csc2ccccc12)NC(=O)C(C)(C)N
Response: 1.58

Request: // log10 of Ki lookup, key: CCC(=O)N[C@@H](Cc1c[nH]c2ccccc12)NC(=O)[C@@H](Cc1csc2ccccc12)NC(=O)C(C)(C)N
Response: 1.79

Request: // log10 of Ki lookup, key: O=CN[C@@H](Cc1ccc2ccccc2c1)NC(=O)[C@@H](Cc1csc2ccccc12)NC(=O)C1CCNCC1
Response: 2.12

Request: // log10 of Ki lookup, key: CC(C)(C)C(=O)N[C@@H](Cc1c[nH]c2ccccc12)NC(=O)[C@@H](Cc1csc2ccccc12)NC(=O)C(C)(C)N
Response: 1.81

Request: // log10 of Ki lookup, key: CC(C)(N)C(=O)N[C@H](Cc1cccc2ccccc12)C(=O)N[C@H](Cc1c[nH]c2ccccc12)NC=O
Response: 1.23

The measurements presented in this section are drawn from patent US8138218B2.
